Biological target: T1, CAPRIN-1 protein expressed on the cell surface of human cancer cells (human, UniProt Q14444 2-709)
T1 construct: whole, on cells; Target of all flow cytometry and ADCC assays; the cell line is named under assay; also called human CAPRIN-1; cytoplasmic- and proliferation-associated protein 1
T1 sequence (looked up): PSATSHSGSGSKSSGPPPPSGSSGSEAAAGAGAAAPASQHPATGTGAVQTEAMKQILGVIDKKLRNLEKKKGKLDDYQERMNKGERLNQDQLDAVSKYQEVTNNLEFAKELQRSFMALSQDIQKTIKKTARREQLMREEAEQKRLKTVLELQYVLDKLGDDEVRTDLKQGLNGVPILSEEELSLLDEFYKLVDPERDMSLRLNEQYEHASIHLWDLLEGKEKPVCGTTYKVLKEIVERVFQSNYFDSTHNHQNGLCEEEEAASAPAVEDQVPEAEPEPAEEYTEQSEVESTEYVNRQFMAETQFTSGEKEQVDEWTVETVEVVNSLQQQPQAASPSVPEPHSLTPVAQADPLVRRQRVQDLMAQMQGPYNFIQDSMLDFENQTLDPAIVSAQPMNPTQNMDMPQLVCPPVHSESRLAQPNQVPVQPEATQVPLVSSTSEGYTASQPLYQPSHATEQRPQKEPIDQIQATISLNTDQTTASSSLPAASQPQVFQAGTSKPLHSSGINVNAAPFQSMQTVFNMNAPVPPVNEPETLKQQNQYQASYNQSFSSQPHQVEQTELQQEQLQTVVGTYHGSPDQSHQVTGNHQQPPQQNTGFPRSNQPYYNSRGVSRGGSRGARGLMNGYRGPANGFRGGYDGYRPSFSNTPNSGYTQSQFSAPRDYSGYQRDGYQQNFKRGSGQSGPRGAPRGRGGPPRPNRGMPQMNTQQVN
Assay: flow cytometry, TGBC14TKB cells, culture supernatant, isotype control antibody as control
assay_metric: rate of increase in mean fluorescence intensity over control

Study these solved cases before continuing.
- binder: "mouse monoclonal antibody #4 (antibody, V domains shown, mouse hybridoma antibody; also called anti-CAPRIN-1 mouse monoclonal antibody #4; anti-CAPRIN-1 monoclonal antibody #4) VH: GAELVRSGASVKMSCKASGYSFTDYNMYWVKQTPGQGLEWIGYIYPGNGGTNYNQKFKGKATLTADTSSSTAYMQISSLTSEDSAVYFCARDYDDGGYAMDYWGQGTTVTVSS VL: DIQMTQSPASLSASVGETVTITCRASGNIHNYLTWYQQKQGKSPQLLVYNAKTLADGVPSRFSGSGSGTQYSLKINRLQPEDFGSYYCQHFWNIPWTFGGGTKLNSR"
  reading: "≥ 20%"
- binder: "mouse monoclonal antibody #13 (antibody, V domains shown, mouse hybridoma antibody; also called anti-CAPRIN-1 mouse monoclonal antibody #13; anti-CAPRIN-1 monoclonal antibody #13) VH: EVQLHQFGAELVKPGASVKISCKASGYTFTDYNMDWVKQSHGKSLEWIGDINPNYDSTSYNQKFKGKATLTVDKSSSTAYMELRSLTSEDTAVYYCARSRSYDYEGFAYWGQGTLVTVSAAKTTPPSVY VL: AVLRCSRGLLVIWISDIQLTQSPSSLAVTAGEKVTMSCKSSQSLLWSVNQKNYLSWYQQKQRQPPKLLIYGASIRESWVPDRFTGSGSGTDFTLTISNVHAEDLAVYYCQHNHGSFLPSRSEQVPSWRSNNR"
  reading: "≥ 20%"

So, mouse monoclonal antibody #6 (antibody) chain 1: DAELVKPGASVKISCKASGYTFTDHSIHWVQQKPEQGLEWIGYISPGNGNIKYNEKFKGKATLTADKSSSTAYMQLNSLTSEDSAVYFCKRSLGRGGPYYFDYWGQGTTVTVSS chain 2: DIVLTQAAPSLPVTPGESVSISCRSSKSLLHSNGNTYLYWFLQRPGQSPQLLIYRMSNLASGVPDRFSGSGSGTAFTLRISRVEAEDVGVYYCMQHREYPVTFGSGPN ? Its rate of increase in mean fluorescence intensity over control was ≥ 20%
